- Tested on: LNCaP
- run.description: Cytotoxicity against human LNCAP cells assessed as inhibition of cell viability at 1 uM after 3 days by trypan blue dye exclusion assay
- Format: functional
- measurement.setup: 72 h
Reported inhibition at 1 µM is given for each of the following compounds.
quantity.name: inhibition at 1 µM

compound=CCCCCCn1ccnc1/C=C/C(=O)/C=C/c1nccn1CCCCCC test_result=41.7%
compound="CCCC(C)n1c(/C=C/C(=O)/C=C/c2nc3ccccc3n2C(C)CCC)nc2ccccc21 (stereo unspecified)" test_result=59.2%
compound=CCCn1c(/C=C/C(=O)/C=C/c2nc3ccccc3n2CCC)nc2ccccc21 test_result=73.1%
compound=Cn1cc(/C=C/C(=O)/C=C/c2cnn(C)c2)cn1 test_result=6.45%
compound=O=C(/C=C/c1cc2ccccc2nc1Cl)/C=C/c1cc2ccccc2nc1Cl test_result=11.6%
compound=O=C(/C=C/c1ccnc2ccccc12)/C=C/c1ccnc2ccccc12 test_result=48.2%
compound=O=C(/C=C/c1cncs1)/C=C/c1cncs1 test_result=14.5%
compound=Cc1nc(/C=C/C(=O)/C=C/c2nc(C)c(-c3ccncc3)s2)sc1-c1ccncc1 test_result=34.4%
compound=CCCn1ccnc1/C=C/C(=O)/C=C/c1nccn1CCC test_result=47.3%
compound=CCCCCn1ccnc1/C=C/C(=O)/C=C/c1nccn1CCCCC test_result=50.9%
compound=O=C(/C=C/c1ccncc1F)/C=C/c1ccncc1F test_result=26.9%

----------
- Test system: HeLa
- run.description: Cytotoxicity against human HeLa cells assessed as inhibition of cell viability at 10 uM after 3 days by trypan blue dye exclusion assay
- Assay type: functional
- measurement.setup: 72 h
Reported inhibition at 10 µM is given for each of the following compounds.
quantity.name: inhibition at 10 µM (%)

compound="CCCC(C)n1c(/C=C/C(=O)/C=C/c2nc3ccccc3n2C(C)CCC)nc2ccccc21 (stereo not drawn)" study_target=HeLa unit_name=% test_result=94.2
compound=CCC(CC)n1c(/C=C/C(=O)/C=C/c2nc3ccccc3n2C(CC)CC)nc2ccccc21 study_target=HeLa unit_name=% test_result=97.3
compound=O=C(/C=C/c1ccncc1F)/C=C/c1ccncc1F study_target=HeLa unit_name=% test_result=98.2
compound=Cc1cccc(/C=C/C(=O)/C=C/c2cccc(C)n2)n1 study_target=HeLa unit_name=% test_result=96.6
compound=Cc1nc(/C=C/C(=O)/C=C/c2nc(C)c(-c3ccncc3)s2)sc1-c1ccncc1 study_target=HeLa unit_name=% test_result=49
compound=O=C(/C=C/c1nc2ccccc2s1)/C=C/c1nc2ccccc2s1 study_target=HeLa unit_name=% test_result=96.2
compound=COc1cc(/C=C/C(=O)CC(=O)/C=C/c2ccc(O)c(OC)c2)ccc1O study_target=HeLa unit_name=% test_result=50.3
compound=Cn1cncc1/C=C/C(=O)/C=C/c1cncn1C study_target=HeLa unit_name=% test_result=84.1
compound=O=C(/C=C/c1ccc2ccccc2n1)/C=C/c1ccc2ccccc2n1 study_target=HeLa unit_name=% test_result=96.5
compound=Cn1cc(Br)c(/C=C/C(=O)/C=C/c2nn(C)cc2Br)n1 study_target=HeLa unit_name=% test_result=99.1
compound=O=C(/C=C/c1ccncc1)/C=C/c1ccncc1 study_target=HeLa unit_name=% test_result=95
compound=CCCn1c(/C=C/C(=O)/C=C/c2nc3ccccc3n2CCC)nc2ccccc21 study_target=HeLa unit_name=% test_result=98.9
compound=CCCCCCCn1c(/C=C/C(=O)/C=C/c2nc3ccccc3n2CCCCCCC)nc2ccccc21 study_target=HeLa unit_name=% test_result=97.5
compound=CCCCCn1c(/C=C/C(=O)/C=C/c2nc3ccccc3n2CCCCC)nc2ccccc21 study_target=HeLa unit_name=% test_result=97.5
compound=Cn1nc(C(F)(F)F)c(/C=C/C(=O)/C=C/c2c(C(F)(F)F)nn(C)c2Cl)c1Cl study_target=HeLa unit_name=% test_result=92.7
compound=Cn1c(/C=C/C(=O)/C=C/c2nc3ccccc3n2C)nc2ccccc21 study_target=HeLa unit_name=% test_result=98
compound=O=C(/C=C/c1cccc(Br)n1)/C=C/c1cccc(Br)n1 study_target=HeLa unit_name=% test_result=89.6
compound=CCCn1ccnc1/C=C/C(=O)/C=C/c1nccn1CCC study_target=HeLa unit_name=% test_result=97.6
compound="CCCC(C)n1ccnc1/C=C/C(=O)/C=C/c1nccn1C(C)CCC (stereo not drawn)" study_target=HeLa unit_name=% test_result=97.2
compound=O=C(/C=C/c1cocn1)/C=C/c1cocn1 study_target=HeLa unit_name=% test_result=97.6
compound=CCCCCCn1c(/C=C/C(=O)/C=C/c2nc3ccccc3n2CCCCCC)nc2ccccc21 study_target=HeLa unit_name=% test_result=97
compound=Cc1csc(/C=C/C(=O)/C=C/c2nc(C)cs2)n1 study_target=HeLa unit_name=% test_result=97.8
compound=CCCCCn1ccnc1/C=C/C(=O)/C=C/c1nccn1CCCCC study_target=HeLa unit_name=% test_result=96.8
compound=CC(C)CCn1ccnc1/C=C/C(=O)/C=C/c1nccn1CCC(C)C study_target=HeLa unit_name=% test_result=95.7
compound=O=C(/C=C/c1cc2ccccc2nc1Cl)/C=C/c1cc2ccccc2nc1Cl study_target=HeLa unit_name=% test_result=21.5
compound=O=C(/C=C/c1ccnc2ccccc12)/C=C/c1ccnc2ccccc12 study_target=HeLa unit_name=% test_result=96.5
compound=CCCCn1c(/C=C/C(=O)/C=C/c2nc3ccccc3n2CCCC)nc2ccccc21 study_target=HeLa unit_name=% test_result=97.7
compound=CCC(CC)n1ccnc1/C=C/C(=O)/C=C/c1nccn1C(CC)CC study_target=HeLa unit_name=% test_result=94.8
